This collection of values is drawn from the supplement of paper PMC10567573.

B1: RHOBTB2 (parent)
chain: NQEITKAFHVRRTNRVKECLAKGT

- Variants of: B1
- PROTOCOL TEXT: protein stability index of a GFP-peptide fusion (GPS, HEK-293T) (PSI 1-6); higher = more stable;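 note: lentivirally expressed fusions sorted by FACS into six bins by GFP to DsRed ratio, PSI derived from sequencing read proportions per bin multiplied by bin number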
- CONDITION: c terminus: a fixed tail appended
ATTRIBUTE MEASURED: protein stability index
// keep it numeric: no unit symbol after the value

For orientation, consider the following solved cases.
   mutant       attribute_measured  observed_result
0    T13N  protein stability index             3.54
1    A21Q  protein stability index             2.65
2    E18N  protein stability index             2.92
3    N14L  protein stability index             3.09
4    R12H  protein stability index             3.72
5    G23K  protein stability index             4.17

Prompt line: Endpoint output: protein stability index of `N14D` . Value?
Response line: 3.82

Prompt line: So what's the measured protein stability index for this one? `N1W`
Response line: 2.45

Prompt line: Item `V10A` has what recorded protein stability index?
Response line: 4.09

Prompt line: Any idea what its protein stability index is? The variant is `T5F`
Response line: 2.67

Prompt line: Requested field: protein stability index. Item: `E18Q`
Response line: 2.87

Prompt line: What value of protein stability index has been reported for the following variant? `A21N`
Response line: 3.42
